- experimentalTarget: isolated recombinant JAK2 kinase domain (Homo sapiens)
- Construct: The activity of the isolated recombinant JAK1 and JAK2 kinase domain was measured
- Sequence (O60674 849-1124 limits assumed): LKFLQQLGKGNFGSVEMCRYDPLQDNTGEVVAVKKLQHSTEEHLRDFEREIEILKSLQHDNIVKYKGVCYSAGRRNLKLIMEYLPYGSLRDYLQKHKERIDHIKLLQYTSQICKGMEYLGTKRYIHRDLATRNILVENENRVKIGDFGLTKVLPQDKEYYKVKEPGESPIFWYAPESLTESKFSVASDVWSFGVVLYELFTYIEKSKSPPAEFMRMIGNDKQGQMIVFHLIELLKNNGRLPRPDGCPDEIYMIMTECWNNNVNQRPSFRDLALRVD
- assay: JAK2 enzyme assay (Caliper LabChip, Ki)
- settings: 25 μM ATP
pKi: −log10 of the molar value.

{"columns": ["givenSmiles", "pKi"],
 "data": [
  ["CSc1ccc(OC(F)F)c(-c2nn(CC(=O)N3CCC(N4CCC[C@H]4C(=O)N(C)C)CC3)cc2NC(=O)c2cnn3cccnc23)c1", 8.89],
  ["CSc1ccc(OC(F)F)c(-c2nn(CC(=O)N3CCN(CC4CCN(CC(=O)N(C)C)CC4)CC3)cc2NC(=O)c2cnn3cccnc23)c1", 9.14],
  ["CSc1ccc(OC(F)F)c(-c2nn(C3(CC#N)CN(C)C3)cc2NC(=O)c2cnn3cccnc23)c1", 9.00],
  ["CSc1ccc(OC(F)F)c(-c2nn(CC(=O)N3CCC(NCC(C)(F)F)CC3)cc2NC(=O)c2cnn3cccnc23)c1", 9.41]
]}

====

- experimentalTarget: isolated recombinant JAK2 kinase domain (Homo sapiens)
- Construct: The activity of the isolated recombinant JAK1 and JAK2 kinase domain was measured
- assay: JAK2 enzyme assay (Caliper LabChip, Ki)
- settings: 25 μM ATP
pKi: −log10 of the molar value.
Each record here notes measured pKi.

{"columns": ["givenSmiles", "experimentalTarget", "pKi"],
 "data": [
  ["CN(C)C(=O)CN1CCN(CC2CCN(C(=O)Cn3cc(NC(=O)c4cnn5cccnc45)c(-c4cc(SC5CC5)ccc4OC(F)F)n3)CC2)CC1", "isolated recombinant JAK2 kinase domain (Homo sapiens)", 9.11],
  ["O=C(Nc1c[nH]nc1-c1cc(SC2COC2)ccc1OC(F)F)c1cnn2cccnc12", "isolated recombinant JAK2 kinase domain (Homo sapiens)", 9.96],
  ["CN(C1CCN(C(=O)Cn2cc(NC(=O)c3cnn4cccnc34)c(-c3cc(SC4COC4)ccc3OC(F)F)n2)CC1)C1COC1", "isolated recombinant JAK2 kinase domain (Homo sapiens)", 8.89],
  ["CSc1ccc(OC(F)F)c(-c2nn(CC(=O)N3CCC(CN4CCOCC4)CC3)cc2NC(=O)c2cnn3cccnc23)c1", "isolated recombinant JAK2 kinase domain (Homo sapiens)", 9.31],
  ["CSc1ccc(OC(F)F)c(-c2nn(CC(=O)N3CCC(N4CC[S+]([O-])CC4)CC3)cc2NC(=O)c2cnn3cccnc23)c1", "isolated recombinant JAK2 kinase domain (Homo sapiens)", 9.36],
  ["CC(C)Sc1ccc(OC(F)F)c(-c2nn(CC(=O)N3CCC(N4CCN(C)C(=O)C4)CC3)cc2NC(=O)c2cnn3cccnc23)c1", "isolated recombinant JAK2 kinase domain (Homo sapiens)", 9.10],
  ["CNC(=O)[C@@H]1CCCN1CC1CCN(C(=O)Cn2cc(NC(=O)c3cnn4cccnc34)c(-c3cc(SC)ccc3OC(F)F)n2)CC1", "isolated recombinant JAK2 kinase domain (Homo sapiens)", 9.14]
]}

====

- experimentalTarget: isolated recombinant JAK1 kinase domain (Homo sapiens, UniProt P23458)
- Construct: The activity of the isolated recombinant JAK1 and JAK2 kinase domain was measured
- Sequence (P23458 875-1153 limits assumed): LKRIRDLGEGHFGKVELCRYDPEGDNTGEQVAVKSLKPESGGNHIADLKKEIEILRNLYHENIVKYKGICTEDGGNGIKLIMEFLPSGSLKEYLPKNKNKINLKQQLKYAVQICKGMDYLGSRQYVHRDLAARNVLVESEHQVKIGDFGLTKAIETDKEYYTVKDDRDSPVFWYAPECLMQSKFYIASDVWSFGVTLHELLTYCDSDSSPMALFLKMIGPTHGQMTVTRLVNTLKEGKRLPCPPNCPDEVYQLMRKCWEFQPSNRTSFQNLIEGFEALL
- assay: JAK1 enzyme assay (Caliper LabChip, Ki)
- Type: biochemical
- settings: recombinant JAK1 kinase domain, 25 μM ATP
Field 'label' (enum: Criterion met / Criterion not met). Set to Criterion met when Ki is strictly under 0.4 nM; else Criterion not met.

{"columns": ["compound", "experimentalTarget", "assignedCategory"],
 "data": [
  ["CC(C)Sc1ccc(OC(F)F)c(-c2nn(CC(=O)N3CCN(CC4CCN(CC(=O)N5CCOCC5)CC4)CC3)cc2NC(=O)c2cnn3cccnc23)c1", "isolated recombinant JAK1 kinase domain (Homo sapiens, UniProt P23458)", "Criterion not met"],
  ["CC(C)Sc1ccc(OC(F)F)c(-c2nn(CC(=O)N3CCC(N4CC5CC(C4)O5)CC3)cc2NC(=O)c2cnn3cccnc23)c1", "isolated recombinant JAK1 kinase domain (Homo sapiens, UniProt P23458)", "Criterion not met"],
  ["CC(C)Sc1ccc(OC(F)F)c(-c2nn(CC(=O)N3CCN(C)CC3)cc2NC(=O)c2cnn3cccnc23)c1", "isolated recombinant JAK1 kinase domain (Homo sapiens, UniProt P23458)", "Criterion not met"],
  ["CSc1ccc(OC(F)F)c(-c2nn(C3(CC#N)CN(C)C3)cc2NC(=O)c2cnn3cccnc23)c1", "isolated recombinant JAK1 kinase domain (Homo sapiens, UniProt P23458)", "Criterion not met"],
  ["CSc1ccc(OC(F)F)c(-c2nn(CC(=O)N3CCC(N4CCN(CC(=O)N5CCOCC5)CC4)CC3)cc2NC(=O)c2cnn3cccnc23)c1", "isolated recombinant JAK1 kinase domain (Homo sapiens, UniProt P23458)", "Criterion met"],
  ["O=C(Nc1c[nH]nc1-c1cc(SC2COC2)ccc1OC(F)F)c1cnn2cccnc12", "isolated recombinant JAK1 kinase domain (Homo sapiens, UniProt P23458)", "Criterion met"],
  ["CSc1ccc(OC(F)F)c(-c2nn(Cc3cn(C4CCN(C5CCOC5)CC4)nn3)cc2NC(=O)c2cnn3cccnc23)c1 (centres unmarked)", "isolated recombinant JAK1 kinase domain (Homo sapiens, UniProt P23458)", "Criterion met"],
  ["CSc1ccc(OC(F)F)c(-c2nn(CC(=O)N3CCC(N4CC5CC(C4)O5)CC3)cc2NC(=O)c2cnn3cccnc23)c1", "isolated recombinant JAK1 kinase domain (Homo sapiens, UniProt P23458)", "Criterion met"],
  ["CSc1ccc(OC(F)F)c(-c2nn(CC(=O)N3CCC(N(C)CC4(C#N)CC4)CC3)cc2NC(=O)c2cnn3cccnc23)c1", "isolated recombinant JAK1 kinase domain (Homo sapiens, UniProt P23458)", "Criterion met"],
  ["CC(C)Sc1ccc(OC(F)F)c(-c2nn(CC(=O)N3CCC(N4CCn5ccnc5C4)CC3)cc2NC(=O)c2cnn3cccnc23)c1", "isolated recombinant JAK1 kinase domain (Homo sapiens, UniProt P23458)", "Criterion met"],
  ["CNCCn1cc(NC(=O)c2cnn3cccnc23)c(-c2cc(SC)ccc2OC(F)F)n1", "isolated recombinant JAK1 kinase domain (Homo sapiens, UniProt P23458)", "Criterion met"],
  ["O=C(Nc1cn(CC(=O)N2CCN(CCN3CCOCC3)CC2)nc1-c1cc(SC2CC2)ccc1OC(F)F)c1cnn2cccnc12", "isolated recombinant JAK1 kinase domain (Homo sapiens, UniProt P23458)", "Criterion not met"],
  ["CC(C)Sc1ccc(OC(F)F)c(-c2nn(C)cc2NC(=O)c2cnn3cccnc23)c1", "isolated recombinant JAK1 kinase domain (Homo sapiens, UniProt P23458)", "Criterion met"]
]}

Source of measurements: patent US20180265515A1
